Hello, the source for this data is the supplement of paper PMC8285479, in case you need it.

System: NCI-H1944
Assay: normalised cell viability (NPI; 0 = phenylarsine oxide control, 1 = DMSO control) (fraction of DMSO control); higher = more viable cells (less compound toxicity)
Conditions: glucocorticoid arm: hydrocortisone 2.75 uM co-treatment; compound 1 µM; 6 days
Counter-ions that a name gives are not always drawn. The full ranking holds about 1,900 compounds; the median of “normalised cell viability (NPI; 0 = phenylarsine oxide control, 1 = DMSO control)” is about 1, and the lowest 2% start at about 0.039. Shown is part of a subset that was picked to be rich in the lowest values.
Consider the following molecules and their measured normalised cell viability readings.
Field format: numeric only.

COc1ccc(CCN(C)CCCC(C#N)(c2cc(OC)c(OC)c(OC)c2)C(C)C)cc1OC (racemic) [(±)-Methoxyverapamil hydrochloride] :: 1.01
CN1CC[C@@H](c2c(O)cc(O)c3c(=O)cc(-c4ccccc4Cl)oc23)[C@@H]1CO :: 0.183
Cl.N[C@@H](CCC(=O)O)C(=O)O [L-Glutamic acid hydrochloride] :: 1.01
c1ccc(C2CN3CCSC3=N2)cc1 (single isomer, unassigned; (-)) [(-)-Tetramisole hydrochloride] :: 1.02
COc1cc(=O)n(C)c2c(OCC(O)C(C)(C)O)cccc12 (configuration not stated) :: 1.01
CN1CC[C@H](c2c(O)cc(O)c3c(=O)cc(-c4ccccc4Cl)oc23)[C@H](O)C1 [Flavopiridol (Alvocidib)] :: 0.0613

# input Dear colleague, please send me the reported normalised cell viability for CN1CC[C@H](c2c(O)cc(O)c3c(=O)cc(-c4ccccc4Cl)oc23)[C@H](O)C1 [Flavopiridol hydrochloride] when you can.
# output 0.0447

----------
normalised cell viability by entry:
Tested on: NCI-H1944
Test: normalised cell viability (NPI; 0 = phenylarsine oxide control, 1 = DMSO control) (fraction of DMSO control); higher = more viable cells (less compound toxicity)
Conditions: glucocorticoid arm: vehicle; compound 5 µM; 6 days
In all, about 1,900 compounds were measured (“normalised cell viability (NPI; 0 = phenylarsine oxide control, 1 = DMSO control)”: median about 1, lowest 2% from about 0.039 on). The full list was thinned out, with the lowest values kept by preference.
Answer as a number with no unit attached.

Consider the following illustrative entries.
N=C(NC(=O)c1nc(Cl)c(N)nc1N)Nc1ccccc1 [Phenamil methanesulfonate] :: 0.998
CC(C)(C)c1ccc(S(=O)(=O)/C=C/C#N)cc1 :: 0.00936

# input Return normalised cell viability for the following compound: "N#CC(=C(/N)Sc1ccccc1N)/C(C#N)=C(\N)Sc1ccccc1N"
# output 1.02

# input // fetch normalised cell viability given entry CNC(=N)NCCC[C@H](N)C(=O)O [NG-Monomethyl-L-arginine acetate]
# output 0.991

----------
Tested on: NCI-H1944;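 also: CTB read-out in 384-well plates, triplicate wells, NPI normalised per plate against 1 µM phenylarsine oxide (0) and 0.1% DMSO (1) controls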
Assay: normalised cell viability (NPI; 0 = phenylarsine oxide control, 1 = DMSO control) (fraction of DMSO control); NCI-H1944 is a non-small cell lung cancer line; higher = more viable cells (less compound toxicity)
Settings: glucocorticoid arm: hydrocortisone 2.75 uM pre-treated 2 days and continued; compound 5 µM; 6 days
In all, about 1,900 compounds were measured (“normalised cell viability (NPI; 0 = phenylarsine oxide control, 1 = DMSO control)”: median about 1, lowest 2% from about 0.039 on). This is one part of a sample in which the lowest values are shown more often than they occur.
Hi! Could you tag entries with normalised cell viability below 1 as label 1, and those at or above as label 0? Much appreciated.

Worked examples follow.
Cc1cc(C)c(/C=C2\C(=O)Nc3ccccc32)[nH]1 :: label 0
CCc1ccc(OCc2ccccc2C(=O)Nc2ccc3nc(C)cc(N)c3c2)cc1 :: label 1
CCN(CC)CCCC(C)Nc1nc(C)cc(Nc2ccc3nc(C)cc(N)c3c2)n1 (stereo not drawn) :: label 1
C[C@H](Cc1ccc(O)c(O)c1)[C@@H](C)Cc1ccc(O)c(O)c1 :: label 0

Next up:
# input Is normalised cell viability strictly under 1 for the entry Cc1cc(C)c(/C=C2\C(=O)Nc3ccccc32)[nH]1 [Semaxanib (SU5416)] ?
# output label 0
